Target: Transient receptor potential cation channel subfamily V member 4 (Homo sapiens)
Sequence (Q9HBA0 whole entry): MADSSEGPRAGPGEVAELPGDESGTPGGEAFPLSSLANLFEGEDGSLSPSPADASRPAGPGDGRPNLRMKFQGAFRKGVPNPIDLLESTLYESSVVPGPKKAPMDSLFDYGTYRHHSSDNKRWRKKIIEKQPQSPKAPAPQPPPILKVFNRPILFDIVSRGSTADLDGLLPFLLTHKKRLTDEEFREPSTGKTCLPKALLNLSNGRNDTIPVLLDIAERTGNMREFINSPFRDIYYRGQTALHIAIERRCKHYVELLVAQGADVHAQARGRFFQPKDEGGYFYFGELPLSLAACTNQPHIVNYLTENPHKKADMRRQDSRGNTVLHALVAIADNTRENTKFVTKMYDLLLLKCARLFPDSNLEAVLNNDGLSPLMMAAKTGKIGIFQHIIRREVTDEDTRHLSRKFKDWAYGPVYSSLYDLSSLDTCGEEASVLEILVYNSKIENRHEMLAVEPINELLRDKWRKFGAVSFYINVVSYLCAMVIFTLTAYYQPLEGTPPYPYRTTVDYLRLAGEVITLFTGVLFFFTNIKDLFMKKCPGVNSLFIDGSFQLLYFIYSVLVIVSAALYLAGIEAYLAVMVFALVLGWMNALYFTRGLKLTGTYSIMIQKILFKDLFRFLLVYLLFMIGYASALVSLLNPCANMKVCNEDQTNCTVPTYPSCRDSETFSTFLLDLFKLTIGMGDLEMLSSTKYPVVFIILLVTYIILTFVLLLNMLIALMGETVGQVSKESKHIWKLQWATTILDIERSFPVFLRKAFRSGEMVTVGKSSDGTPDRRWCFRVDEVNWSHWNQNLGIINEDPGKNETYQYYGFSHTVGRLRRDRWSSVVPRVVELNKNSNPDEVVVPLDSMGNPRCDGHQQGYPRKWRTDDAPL
Test: Antagonist activity at human TRPV4 channel
endpoint name: IC50

What IC50 value was documented for this compound, CC(C)c1ccc(NC(=O)Cn2cnc3c2c(=O)n(C)c(=O)n3C)cc1 ? > 10 µM

---

Molecular target: Transient receptor potential cation channel subfamily A member 1 (Mus musculus, UniProt Q8BLA8)
Sequence (Q8BLA8 whole entry): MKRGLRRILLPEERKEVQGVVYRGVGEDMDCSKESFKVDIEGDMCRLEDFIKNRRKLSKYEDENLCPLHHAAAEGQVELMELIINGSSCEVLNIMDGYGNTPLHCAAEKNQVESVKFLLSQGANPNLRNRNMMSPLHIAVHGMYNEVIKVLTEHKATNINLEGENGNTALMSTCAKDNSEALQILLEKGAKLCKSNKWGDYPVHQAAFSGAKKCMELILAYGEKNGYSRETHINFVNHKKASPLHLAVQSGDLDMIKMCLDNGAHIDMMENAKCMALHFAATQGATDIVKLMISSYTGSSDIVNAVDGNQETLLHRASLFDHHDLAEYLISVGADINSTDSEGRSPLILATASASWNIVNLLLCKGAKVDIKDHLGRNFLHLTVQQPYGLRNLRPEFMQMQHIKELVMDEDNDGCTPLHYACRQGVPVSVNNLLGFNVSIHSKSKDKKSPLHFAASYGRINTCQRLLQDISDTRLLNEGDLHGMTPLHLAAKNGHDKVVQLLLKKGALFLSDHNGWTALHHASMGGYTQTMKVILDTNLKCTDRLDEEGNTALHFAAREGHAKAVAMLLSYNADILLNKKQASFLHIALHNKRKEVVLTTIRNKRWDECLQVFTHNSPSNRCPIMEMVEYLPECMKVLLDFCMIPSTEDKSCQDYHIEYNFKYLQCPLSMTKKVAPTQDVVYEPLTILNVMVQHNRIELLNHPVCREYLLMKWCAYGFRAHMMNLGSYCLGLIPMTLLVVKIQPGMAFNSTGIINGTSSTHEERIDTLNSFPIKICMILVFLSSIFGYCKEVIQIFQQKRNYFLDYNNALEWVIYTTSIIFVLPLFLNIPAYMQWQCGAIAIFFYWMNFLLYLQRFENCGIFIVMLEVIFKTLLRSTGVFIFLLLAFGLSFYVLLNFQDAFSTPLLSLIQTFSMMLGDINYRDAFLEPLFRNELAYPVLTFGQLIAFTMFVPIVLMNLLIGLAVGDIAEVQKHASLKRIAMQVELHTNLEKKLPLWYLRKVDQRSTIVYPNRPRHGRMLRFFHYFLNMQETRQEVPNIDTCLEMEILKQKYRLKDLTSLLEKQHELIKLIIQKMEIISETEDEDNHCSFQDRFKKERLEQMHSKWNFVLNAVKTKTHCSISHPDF
Experiment: Agonist activity at mouse TRPA1 channel expressed in CHO cells assessed as increase in intracellular calcium influx
Format: functional, cell-based
endpoint name: EC50
Lab note: write values as number then unit, every time.

What EC50 value was documented for this compound, COC(=O)C1=C(C)NC(C)=C(C(=O)OCCN(C)Cc2ccccc2)C1c1cccc([N+](=O)[O-])c1 (centres undefined) ? 0.5 µM
